Protocol: Solubility of the compound in JP2 buffer at pH 6.8
Type: physicochemical

- Smiles String: "CC1(C)N=C(C2CCCCC2)c2ccc(C#N)cc2N(c2ccc(NCCNC3CCOCC3)cc2)C1=O"
  solubility, µg/mL: 500

* * *

Target Entity: Parathyroid hormone/parathyroid hormone-related peptide receptor (Homo sapiens, UniProt Q03431)
Sequence (Q03431 whole entry): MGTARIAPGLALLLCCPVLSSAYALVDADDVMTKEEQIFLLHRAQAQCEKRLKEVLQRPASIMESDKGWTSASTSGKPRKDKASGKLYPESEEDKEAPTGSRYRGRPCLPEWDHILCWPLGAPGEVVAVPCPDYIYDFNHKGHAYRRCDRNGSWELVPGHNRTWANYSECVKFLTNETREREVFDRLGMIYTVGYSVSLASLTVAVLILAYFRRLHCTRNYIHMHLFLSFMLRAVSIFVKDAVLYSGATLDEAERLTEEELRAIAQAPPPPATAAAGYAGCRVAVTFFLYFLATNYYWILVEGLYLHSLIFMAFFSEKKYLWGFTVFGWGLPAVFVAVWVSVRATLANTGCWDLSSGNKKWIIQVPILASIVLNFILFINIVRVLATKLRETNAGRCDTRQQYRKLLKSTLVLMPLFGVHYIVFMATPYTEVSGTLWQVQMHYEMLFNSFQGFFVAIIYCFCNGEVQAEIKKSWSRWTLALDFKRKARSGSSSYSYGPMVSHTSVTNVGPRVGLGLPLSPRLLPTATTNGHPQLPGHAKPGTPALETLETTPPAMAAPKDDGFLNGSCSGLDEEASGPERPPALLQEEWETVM
pIC50: −log10 of the molar value.
Decision: pIC50 >= 5 yields T, all other cases yield F.

- Compound: "CC1(C)N=C(C2CCCCC2)c2ccc(C#N)cc2N(c2ccc(NCCCN)cc2)C1=O"
  Class Assignment: "T"
- Compound: "Cc1ccc2c(c1)N(c1ccc(NCCN)cc1)C(=O)C(C)(C)N=C2C1CCCCC1"
  Class Assignment: "T"
- Compound: "CC1(C)N=C(C2CCCCC2)c2ccc(C#N)cc2N(c2ccc(NCCNC3CCN(S(C)(=O)=O)CC3)cc2)C1=O"
  Class Assignment: "T"
- Compound: "CC(C)CC1=NC(C)(C)C(=O)N(c2ccc(NCCN)cc2)c2cc(Cl)ccc21"
  Class Assignment: "F"
- Compound: "CC1(C)N=C(C2CCCCC2)c2ccc(C#N)cc2N(c2ccc(NCCNC3CCCCC3)cc2)C1=O"
  Class Assignment: "T"
- Compound: "CC1(C2=NC(C)(C)C(=O)N(c3ccc(NCCN)cc3)c3cc(Cl)ccc32)CCCCC1"
  Class Assignment: "F"
- Compound: "CC(C)C1(C)N=C(C2CCCCC2)c2ccc(Cl)cc2N(c2ccc(NCCN)cc2)C1=O (centres undefined)"
  Class Assignment: "T"
- Compound: "NCCNc1ccc(N2C(=O)CN=C(C3CCCCC3)c3ccc(Cl)cc32)cc1"
  Class Assignment: "F"
- Compound: "CC1(C)N=C(C2CCCCC2)c2ccc(C#N)cc2N(c2ccc(OCCN)cc2)C1=O"
  Class Assignment: "T"
